Source: paper PMC10163259

Target: KK-LC-1 (Homo sapiens, UniProt Q5H943)
Sequence (Q5H943 whole entry): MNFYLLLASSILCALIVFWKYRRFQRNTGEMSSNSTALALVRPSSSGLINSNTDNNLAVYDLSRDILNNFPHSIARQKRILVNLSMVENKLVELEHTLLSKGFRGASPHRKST
METRIC: Kd (µM)

COMPOUND | DISPLAY UNIT | VALUE OBSERVED
Cc1ccc(CNC(=O)c2nnc(CN(C)C3CCc4ccccc43)s2)cc1 (stereo not shown) [Z8, Z839878730] | µM | 4.3
